# Test Name: Ulcerogenic activity / gastric tolerability, UD50 in fasted rats
# Format: in vivo, rat
# Assay Context: rat, in vivo, po, Gastric tolerability UD50 fasted 18 h
Readout Label: TD50 at 18 h (mg/kg)
Give just the numeric value; mg/kg need not be written.

Item under review: `COc1ccc2c(c1)c(CC(=O)OCc1cnc(C)c(O)c1CO)c(C)n2C(=O)c1ccc(Cl)cc1` . Reported TD50 at 18 h?
530

----------
# Test Name: Acute toxicity in the rat (method of Litchfield and Wilcoxon)
# Assay Context: in vivo, po, 819 mg/kg, read-out: LD50, rat line: percent at 819 mg/kg
Readout Label: mortality (%)
Give just the numeric value; % need not be written.

Item under review: `COc1ccc2c(c1)c(CC(=O)OCc1cnc(C)c(O)c1CO)c(C)n2C(=O)c1ccc(Cl)cc1` . Reported mortality?
62.5
